# Test Protocol: Preliminary assessment of pharmacokinetics in mice
# Assay type: in vivo, CD-1 mice
# Condition Details: male, CD-1, mouse, plasma, intraperitoneal, 20 mg/kg, title: intraperitoneal 20 mg/kg; 0.25 h; mean; read-out: Concentration of A1 Drug in Plasma of Mice
Experimental Endpoint: concentration at 0.25 h
Field note: include the unit after the figure.

Need concentration at 0.25 h, item CC(C)Oc1ccc(-c2nc(-c3ccc(CN4CC(C(=O)O)C4)c4ccccc34)no2)cc1C#N.Cl [Compound A1]
1740 ng/mL

* * *

# Test Protocol: Preliminary assessment of in vivo pharmacokinetics in rats
# Condition Details: rat, plasma, oral, 20 mg/kg, intragastric 20 mg/kg; 1 h; mean; read-out: Plasma drug concentrations in rats
Experimental Endpoint: concentration at 1 h (µg/mL)
Lab book: enter the figure in µg/mL, no units written.

Need concentration at 1 h, item CC(C)Oc1ccc(-c2nc(-c3ccc(CN4CC(C(=O)O)C4)c4ccccc34)no2)cc1C#N.Cl
2.57

* * *

# Test Protocol: Preliminary assessment of in vivo pharmacokinetics in rats
# Condition Details: rat, plasma, po, 20 mg/kg, rats; 20 mg/kg by gavage; range over animals; read-out: peak time Tmax
Experimental Endpoint: Tmax

Need Tmax, item CC(C)Oc1ccc(-c2nc(-c3ccc(CN4CC(C(=O)O)C4)c4ccccc34)no2)cc1C#N.Cl
30 to 60 min

* * *

# Test Protocol: Preliminary evaluation of pharmacokinetics in Beagle dogs
# Format: in vivo
# Condition Details: beagle, dog, plasma, oral, 3 mg/kg, intragastric 3 mg/kg; 6 h; mean; read-out: Plasma drug concentration in Beagle dogs
Experimental Endpoint: concentration at 6 h (ng/mL)
Lab book: enter the figure in ng/mL, no units written.

Need concentration at 6 h, item CC(C)Oc1ccc(-c2nc(-c3ccc(CN4CC(C(=O)O)C4)c4ccccc34)no2)cc1C#N.Cl
59.4

* * *

# Test Protocol: Preliminary assessment of in vivo pharmacokinetics in rats
# Condition Details: rat, plasma, iv, 2 mg/kg, intravenous 2 mg/kg; 6 h; individual animals 1-3; read-out: Plasma drug concentrations in rats
Experimental Endpoint: concentration at 6 h

Need concentration at 6 h, item CC(C)Oc1ccc(-c2nc(-c3ccc(CN4CC(C(=O)O)C4)c4ccccc34)no2)cc1C#N.Cl [Compound A1]
45.8 ng/mL

* * *

# Test Protocol: Preliminary assessment of pharmacokinetics in mice
# Assay type: in vivo, CD-1 mice
# Condition Details: male, CD-1, mouse, plasma, ip, 20 mg/kg, intraperitoneal injection 20 mg/kg; 8.00 h; mean; read-out: Concentration of A1 Drug in Plasma of Mice
Experimental Endpoint: concentration at 8 h
Field note: include the unit after the figure.

Need concentration at 8 h, item CC(C)Oc1ccc(-c2nc(-c3ccc(CN4CC(C(=O)O)C4)c4ccccc34)no2)cc1C#N.Cl
157 ng/mL

* * *

# Test Protocol: Preliminary assessment of pharmacokinetics in mice
# Type: in vivo, CD-1 mice
# Condition Details: male, CD-1, mouse, plasma, po, 2 mg/kg, title: oral 2 mg/kg; 24.0 h; individual animals 4-6; read-out: Concentration of A1 Drug in Plasma of Mice
Experimental Endpoint: concentration at 24 h (ng/mL)
Lab book: enter the figure in ng/mL, no units written.

Need concentration at 24 h, item CC(C)Oc1ccc(-c2nc(-c3ccc(CN4CC(C(=O)O)C4)c4ccccc34)no2)cc1C#N.Cl
0.5

Origin of the recorded values: patent US20240208954A1
